- protocol text: chemical genetic growth profiling, strain panel (AID 1159580);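 also: tested at 20 µM; growth read once vehicle control cultures reached saturation at 30 °C; 1 = growth at the plate median or of vehicle wells; lower values mean less growth of the strain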
- measurement parameters: S. cerevisiae deletion strains, growth OD, locus YCL011C, strain gbp2
Hit rate of the full screen: of about 5,500 compounds, about 2,000 (36%) were called active. Not shown: some 18% with an inconclusive outcome. Rule as the data show it: active = normalized growth mostly below about 0.91 (no sharp cut-off); inconclusive = no clear call, values can overlap the other calls; inactive = mostly above about 0.92. The list shows a part of the results.
Tick one outcome: 1 (yes) (active), 0 (no) (inactive)

Recorded results for 8 molecules are shown here.
Nc1cc(-c2ccncc2)c[nH]c1=O: 1 (yes)
C=Cc1c(C)c2[n-]c1=Cc1[n-]c(c(CC)c1C)C=c1[n-]c3c(c1C)C(=O)C(C(=O)[O-])C=3c1[n-]c(c(C)c1CCC(=O)[O-])C=2.[Cu] (configuration not stated): 0 (no)
NS(=O)(=O)c1cc2c(cc1Cl)NC(C1CC3C=CC1C3)NS2(=O)=O (configuration not stated): 0 (no)
O=[N+]([O-])c1cccc2cn[nH]c12: 0 (no)
CCCCCC1C(=O)CCC1CC(=O)O (configuration not stated): 0 (no)
CSc1ccc2c(c1)N(CCC1CCCCN1C)c1ccccc1S2 (configuration not stated): 0 (no)
CN(C)C(=O)Nc1ccc(Cl)c(Cl)c1: 0 (no)
COc1cc(S(C)=O)ccc1-c1nc2ncccc2[nH]1 (configuration not stated): 0 (no)

Per the assay record, what outcome was assigned to Nc1ccncc1 ? 0 (no)

Per the assay record, what outcome was assigned to CCCCCC1C(=O)CCC1CC(=O)OC (configuration not stated) ? 0 (no)

Per the assay record, what outcome was assigned to CCC(=O)Nc1ccc(Cl)c(Cl)c1 ? 0 (no)

Per the assay record, what outcome was assigned to O=[N+]([O-])c1cccc2c(Br)[nH]nc12 ? 0 (no)

* * *

- protocol text: chemical genetic growth profiling, strain panel (AID 1159580);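 also: tested at 20 µM; growth read once vehicle control cultures reached saturation at 30 °C; 1 = growth at the plate median or of vehicle wells; lower values mean less growth of the strain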
- measurement parameters: S. cerevisiae deletion strains, growth OD, locus YKL160W, strain elf1
Hit rate of the full screen: of about 5,500 compounds, about 2,000 (36%) were called active. Another 18% or so got no clear call; they are omitted. Rule as the data show it: active = normalized growth mostly below about 0.91 (no sharp cut-off); inconclusive = no clear call, values can overlap the other calls; inactive = mostly above about 0.92. The list shows a part of the results.
Tick one outcome: active, inactive

Recorded results for 5 compounds are shown here.
Cc1ncc([N+](=O)[O-])n1CC(C)O (configuration not stated): inactive
CN1CCN(C2=Nc3ccccc3Oc3ccc(Cl)cc32)CC1: inactive
NC(N)=O: inactive
C=C[C@H]1CN2CC[C@H]1C[C@@H]2[C@H](O)c1ccnc2ccccc12: inactive
O=c1cc(-c2ccccc2)oc2cc(O)c(O)c(O)c12: active

Per the assay record, what outcome was assigned to CCCC(CCC)C(=O)O ? inactive

Per the assay record, what outcome was assigned to CCCCS(=N)(=O)CCC(N)C(=O)O (configuration not stated) ? inactive

* * *

- protocol text: chemical genetic growth profiling, strain panel (AID 1159580);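 also: tested at 20 µM; growth read once vehicle control cultures reached saturation at 30 °C; 1 = growth at the plate median or of vehicle wells; lower values mean less growth of the strain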
- measurement parameters: S. cerevisiae deletion strains, growth OD, locus YKL085W, strain MDH1
Among all 5,500 compounds or so, about 2,000 (36%) were called active. Another 18% or so got no clear call; they are omitted. Cut-off read from the data, not from the text of the source: active = normalized growth mostly below about 0.91 (no sharp cut-off); inconclusive = no clear call, values can overlap the other calls; inactive = mostly above about 0.92. The list shows a part of the results.
Tick one outcome: active, inactive

CN(C)CCOC(=O)COc1ccc(Cl)cc1: inactive
O=c1cc(-c2ccccc2)oc2cc(O)cc(O)c12: active
COc1cc2c(cc1-c1cc3cc4ccoc4cc3oc1=O)OCO2: inactive

Per the assay record, what outcome was assigned to O=c1cc(-c2ccccc2)oc2cc(O)c(O)c(O)c12 ? active

Per the assay record, what outcome was assigned to Cc1cccc(Nc2ccncc2S(=O)(=O)NC(=O)NC(C)C)c1 ? inactive

Per the assay record, what outcome was assigned to O=c1cc(-c2ccccc2)oc2c(O)c(O)ccc12 ? inactive
